# EC50 (nM), mean (n = 2), IGF-I pTYR of hIGF-IR in NIH3T3 cells per record follows
target: human insulin-like growth factor-I (IGF-I) (human, UniProt P05019 49-118); test: cell-based or functional assay
EXPERIMENTAL READOUT: EC50 (nM), mean (n = 2), IGF-I pTYR of hIGF-IR in NIH3T3 cells

>  <BINDER>
mAb 7.158.2 (antibody, V domains shown, Kappa light chain (L5/JK3); also called 7.158.1; 7_158_1) VH: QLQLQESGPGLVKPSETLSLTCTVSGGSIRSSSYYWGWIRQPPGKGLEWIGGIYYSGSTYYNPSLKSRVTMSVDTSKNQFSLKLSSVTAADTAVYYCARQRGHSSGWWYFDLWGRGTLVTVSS VL: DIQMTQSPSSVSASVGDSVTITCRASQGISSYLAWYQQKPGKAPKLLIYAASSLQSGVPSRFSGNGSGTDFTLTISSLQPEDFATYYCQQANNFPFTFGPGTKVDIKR

>  <REPORTED MEASUREMENT>
28.3

$$$$
>  <BINDER>
mAb 7.159.2 (antibody, V domains shown, Fully human XenoMouse hybridoma mAb, lambda light chain (V1-19/JL2); Sister clones 7.159.1 and 7.159.2 are said to be identical; also called 7.159.1; 7_159_1) VH: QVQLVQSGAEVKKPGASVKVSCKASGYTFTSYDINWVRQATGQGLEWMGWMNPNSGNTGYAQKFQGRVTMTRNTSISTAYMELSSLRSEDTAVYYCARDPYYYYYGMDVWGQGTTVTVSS VL: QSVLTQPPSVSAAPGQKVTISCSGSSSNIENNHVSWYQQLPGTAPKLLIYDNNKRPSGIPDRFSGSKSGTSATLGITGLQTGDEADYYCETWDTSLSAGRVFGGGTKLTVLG

>  <REPORTED MEASUREMENT>
7.4

$$$$
>  <BINDER>
mAb 7.251.3 (antibody, V domains shown, Fully human XenoMouse hybridoma mAb, lambda light chain (V1-13/JL2); also called ATCC PTA-7422) VH: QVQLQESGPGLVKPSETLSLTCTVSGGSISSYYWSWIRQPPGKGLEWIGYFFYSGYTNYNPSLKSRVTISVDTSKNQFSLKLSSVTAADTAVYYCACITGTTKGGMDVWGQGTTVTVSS VL: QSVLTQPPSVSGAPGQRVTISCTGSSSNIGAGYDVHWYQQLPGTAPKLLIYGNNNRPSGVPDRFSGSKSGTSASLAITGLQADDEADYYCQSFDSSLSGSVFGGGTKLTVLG

>  <REPORTED MEASUREMENT>
14.5

$$$$
>  <BINDER>
mAb 7.234.2 (antibody, V domains shown, Kappa light chain (L5/JK3); also called 7.234.1; 7_234_1) VH: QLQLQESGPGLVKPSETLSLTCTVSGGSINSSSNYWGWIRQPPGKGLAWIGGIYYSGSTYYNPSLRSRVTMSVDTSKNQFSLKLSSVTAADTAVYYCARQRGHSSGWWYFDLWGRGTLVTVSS VL: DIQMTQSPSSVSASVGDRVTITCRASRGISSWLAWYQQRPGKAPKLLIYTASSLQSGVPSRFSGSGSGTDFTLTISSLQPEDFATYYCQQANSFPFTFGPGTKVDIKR

>  <REPORTED MEASUREMENT>
24.3

$$$$
